Tested on: A498
Assay: Anti-cancer activity against human A498 cells assessed as cell growth inhibition measured after 48 hrs by SRB method
Assay type: functional, cell-based
Settings: A498, 48 h
readout type: IC50

// query Entry C1=C2CNCC3=Cc4c(ccc5ccccc45)OC23Oc2ccc3ccccc3c21 : reported IC50 = ?
// result 16.2 µM

* * *

Tested on: HCT-15
Assay: Anti-cancer activity against human HCT-15 cells assessed as cell growth inhibition measured after 48 hrs by SRB method
Assay type: functional, cell-based
Conditions: HCT-15, 48 h
readout type: IC50

// query Entry C1=C2CNCC3=Cc4c(ccc5ccccc45)OC23Oc2ccc3ccccc3c21 : reported IC50 = ?
// result 5.5 µM

* * *

Test system: RPMI-8226
Experiment: Anti-cancer activity against human RPMI-8226 cells assessed as cell growth inhibition measured after 48 hrs by SRB method
Assay type: functional, cell-based
Details: RPMI-8226, 48 h
readout type: pIC50
// returns pIC50 (minus log10 of molar concentration), number only

// query Please state recorded pIC50 (tested on RPMI-8226) of C1=C2CNCC3=Cc4c(ccc5ccccc45)OC23Oc2ccc3ccccc3c21
// result 4.86

* * *

Test system: MDA-MB-435
Assay: Anti-cancer activity against human MDA-MB-435 cells assessed as cell growth inhibition measured after 48 hrs by SRB method
Type: functional, cell-based
Conditions: MDA-MB-435, 48 h
readout type: IC50 (µM)
A number alone suffices; assume µM.

// query Entry C1=C2CNCC3=Cc4c(ccc5ccccc45)OC23Oc2ccc3ccccc3c21 : reported IC50 = ?
// result 2.4

* * *

Test system: UO-31
Assay: Anti-cancer activity against human UO-31 cells assessed as cell growth inhibition measured after 48 hrs by SRB method
Format: functional, cell-based
Settings: UO-31, 48 h
readout type: pIC50
// returns pIC50 (minus log10 of molar concentration), number only

// query Entry C1=C2CNCC3=Cc4c(ccc5ccccc45)OC23Oc2ccc3ccccc3c21 : reported pIC50 = ?
// result 4.76

* * *

Tested on: NCI-H522
Experiment: Anti-cancer activity against human NCI-H522 cells assessed as cell growth inhibition measured after 48 hrs by SRB method
Type: functional, cell-based
Conditions: NCI-H522, 48 h
readout type: IC50

// query Entry C1=C2CNCC3=Cc4c(ccc5ccccc45)OC23Oc2ccc3ccccc3c21 : reported IC50 = ?
// result 9.55 µM

* * *

Test system: KM12
Experiment: Anti-cancer activity against human KM12 cells assessed as cell growth inhibition measured after 48 hrs by SRB method
Format: functional, cell-based
Settings: KM12, 48 h
readout type: IC50
Please state the value followed by its unit.

// query Please state recorded IC50 (tested on KM12) of C1=C2CNCC3=Cc4c(ccc5ccccc45)OC23Oc2ccc3ccccc3c21
// result 5.75 µM

* * *

Test system: HOP-62
Assay: Anti-cancer activity against human HOP-62 cells assessed as cell growth inhibition measured after 48 hrs by SRB method
Assay type: functional, cell-based
Conditions: HOP-62, 48 h
readout type: pIC50
// returns pIC50 (minus log10 of molar concentration), number only

// query Entry C1=C2CNCC3=Cc4c(ccc5ccccc45)OC23Oc2ccc3ccccc3c21 : reported pIC50 = ?
// result 4.91

* * *

System: A549
Test: Anti-cancer activity against human A549/ATCC cells assessed as cell growth inhibition measured after 48 hrs by SRB method
Type: functional, cell-based
Conditions: A549, 48 h
readout type: pIC50
// returns pIC50 (minus log10 of molar concentration), number only

// query Please state recorded pIC50 (tested on A549) of C1=C2CNCC3=Cc4c(ccc5ccccc45)OC23Oc2ccc3ccccc3c21
// result 5.16

Data origin, for the record: ChEMBL document CHEMBL4680293
